Test system: 454973-116-R2-J3-PDC complex spheroid viability;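 also: spheroids exposed to drugs for seven days before measurement; percent viability relative to DMSO vehicle control wells taken as 100%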
Experiment: Anticancer human tumor 454973-116-R2-J3-PDC patient-derived pancreatic carcinoma cell line growth inhibition [POLQ]
Settings: second compound 0.1 µM; first compound 3.16 µM; hits give low values
quantity name: viability, T/C (%)
Output spec: scalar in %, unitless text.

Solved entries (count: 6):
Ask: Requested read-out: viability, T/C. Entry: COc1ccc([C@@H](O)c2cc(-c3ncnc4cc(N5CCOCC5)ccc34)c(F)cc2Cl)nn1 + Cc1cccc(N(C)C(=O)C2C(O)CCN2c2nc(C)cc(C(F)(F)F)c2C#N)c1
Reply: 71.1

Ask: Requested read-out: viability, T/C. Entry: C#Cc1c(F)ccc2cc(O)cc(-c3ncc4c(N5CC6CCC(C5)N6)nc(OCC56CCCN5CC(F)C6)nc4c3F)c12 (stereo unspecified) + Cc1cccc(N(C)C(=O)C2C(O)CCN2c2nc(C)cc(C(F)(F)F)c2C#N)c1
Reply: 26.5

Ask: Requested read-out: viability, T/C. Entry: CC(C)n1c(=O)n(C)c2cnc3cc(F)c(-c4ccc(OCCCN5CCCCC5)nc4)cc3c21 + COC1C(OC(N)=O)C(O)C(Oc2ccc3c(O)c(NC(=O)c4ccc(O)c(CC=C(C)C)c4)c(=O)oc3c2C)OC1(C)C
Reply: 93.7

Ask: Requested read-out: viability, T/C. Entry: Nc1ccn(C2OC(CO)C(O)C2(F)F)c(=O)n1 (stereo unspecified) + COC1C(OC(N)=O)C(O)C(Oc2ccc3c(O)c(NC(=O)c4ccc(O)c(CC=C(C)C)c4)c(=O)oc3c2C)OC1(C)C
Reply: 11.2

Ask: Requested read-out: viability, T/C. Entry: CCCS(=O)(=O)Nc1ccc(F)c(C(=O)c2c[nH]c3ncc(-c4ccc(Cl)cc4)cc23)c1F + Cc1cccc(N(C)C(=O)C2C(O)CCN2c2nc(C)cc(C(F)(F)F)c2C#N)c1
Reply: 111

Ask: Requested read-out: viability, T/C. Entry: CCCS(=O)(=O)Nc1ccc(F)c(C(=O)c2c[nH]c3ncc(-c4ccc(Cl)cc4)cc23)c1F + Nc1ccc(C#CCN(C(=O)Cc2ncc(C(F)(F)F)cc2C(F)(F)F)c2ccc(F)cc2)nn1
Reply: 113

Next:
Ask: Requested read-out: viability, T/C. Entry: CNCc1ccc(-c2[nH]c3cc(F)cc4c3c2CCNC4=O)cc1 + COC1C(OC(N)=O)C(O)C(Oc2ccc3c(O)c(NC(=O)c4ccc(O)c(CC=C(C)C)c4)c(=O)oc3c2C)OC1(C)C
Reply: 106

Ask: Requested read-out: viability, T/C. Entry: O=c1[nH]cc(F)c(=O)[nH]1 + COC1C(OC(N)=O)C(O)C(Oc2ccc3c(O)c(NC(=O)c4ccc(O)c(CC=C(C)C)c4)c(=O)oc3c2C)OC1(C)C
Reply: 60.6

Ask: Requested read-out: viability, T/C. Entry: CC1COCCN1c1cc(-c2ccnn2C)c2ccnc(-c3ccn[nH]3)c2n1 (stereo unspecified) + Nc1ccc(C#CCN(C(=O)Cc2ncc(C(F)(F)F)cc2C(F)(F)F)c2ccc(F)cc2)nn1
Reply: 11.2

Ask: Requested read-out: viability, T/C. Entry: CC1COCCN1c1cc(C2(S(C)(=N)=O)CC2)nc(-c2ccnc3[nH]ccc23)n1 (stereo unspecified) + Nc1ccc(C#CCN(C(=O)Cc2ncc(C(F)(F)F)cc2C(F)(F)F)c2ccc(F)cc2)nn1
Reply: 70.3

Ask: Requested read-out: viability, T/C. Entry: O=C(Nc1ccc(O)c(NS(=O)(=O)c2ccc(F)cc2)c1)c1ccc(-c2ccccc2)cc1 + COC1C(OC(N)=O)C(O)C(Oc2ccc3c(O)c(NC(=O)c4ccc(O)c(CC=C(C)C)c4)c(=O)oc3c2C)OC1(C)C
Reply: 106

Ask: Requested read-out: viability, T/C. Entry: CCc1cc2c(N3CCc4c(cc(Cn5ccnc5)cc4-c4cn(C)nc4C(F)(F)F)C3=O)ccnc2c(OC)n1 + COC1C(OC(N)=O)C(O)C(Oc2ccc3c(O)c(NC(=O)c4ccc(O)c(CC=C(C)C)c4)c(=O)oc3c2C)OC1(C)C
Reply: 91.5

Ask: Requested read-out: viability, T/C. Entry: O=C(c1cc(Cc2n[nH]c(=O)c3ccccc23)ccc1F)N1CCN(C(=O)C2CC2)CC1 + COC1C(OC(N)=O)C(O)C(Oc2ccc3c(O)c(NC(=O)c4ccc(O)c(CC=C(C)C)c4)c(=O)oc3c2C)OC1(C)C
Reply: 94.6

Ask: Requested read-out: viability, T/C. Entry: CNCc1ccc(-c2[nH]c3cc(F)cc4c3c2CCNC4=O)cc1 + Cc1cccc(N(C)C(=O)C2C(O)CCN2c2nc(C)cc(C(F)(F)F)c2C#N)c1
Reply: 99.4

Ask: Requested read-out: viability, T/C. Entry: COc1ccc([C@@H](O)c2cc(-c3ncnc4cc(N5CCOCC5)ccc34)c(F)cc2Cl)nn1 + COC1C(OC(N)=O)C(O)C(Oc2ccc3c(O)c(NC(=O)c4ccc(O)c(CC=C(C)C)c4)c(=O)oc3c2C)OC1(C)C
Reply: 73.2

Ask: Requested read-out: viability, T/C. Entry: CC1COCCN1c1cc(C2(S(C)(=N)=O)CC2)nc(-c2ccnc3[nH]ccc23)n1 (stereo unspecified) + COC1C(OC(N)=O)C(O)C(Oc2ccc3c(O)c(NC(=O)c4ccc(O)c(CC=C(C)C)c4)c(=O)oc3c2C)OC1(C)C
Reply: 71.8

Each recorded value in this set is attributed to PubChem BioAssay AID1963846.
